# credit: ChEMBL document CHEMBL1649560

This listing pairs compounds with measured MIC.
System: Campylobacter jejuni
Assay: Antibacterial activity against bla gene-positive and nitrocefin reaction-positive beta-lactamase harboring Campylobacter jejuni isolate P338 by NCCLS agar doubling dilution method
Assay type: functional
Give just the numeric value; µg/mL need not be written.

C[C@H]1[C@H](NC(=O)/C(=N\OC(C)(C)C(=O)O)c2csc(N)n2)C(=O)N1S(=O)(=O)O [AZTREONAM]	128

Record request: MIC value, item CC1(C)S[C@@H]2[C@H](NC(=O)Cc3ccccc3)C(=O)N2[C@H]1C(=O)O [PENICILLIN G] 128

What do you get for CC1(C)S[C@@H]2[C@H](NC(=O)[C@H](N)c3ccc(O)cc3)C(=O)N2[C@H]1C(=O)O [AMOXICILLIN] ? 64

What do you get for CC1(C)S[C@@H]2[C@H](NC(=O)C(C(=O)O)c3ccccc3)C(=O)N2[C@H]1C(=O)O (some centres undefined) [CARBENICILLIN] ? 128

* * *

This listing pairs molecules with measured MIC.
Tested on: Campylobacter coli
Experiment: Antibacterial activity against bla gene-positive and nitrocefin reaction-positive beta-lactamase harboring Campylobacter coli isolate P321 by NCCLS agar doubling dilution method
Assay type: functional
Give just the numeric value; µg/mL need not be written.

// solved cases for MIC follow
CC1(C)S[C@@H]2[C@H](NC(=O)[C@H](C(=O)O)c3ccsc3)C(=O)N2[C@H]1C(=O)O	64
CC1(C)S[C@@H]2[C@H](NC(=O)Cc3ccccc3)C(=O)N2[C@H]1C(=O)O	64
CC1(C)S[C@@H]2[C@H](NC(=O)[C@H](N)c3ccccc3)C(=O)N2[C@H]1C(=O)O	128
Cc1onc(-c2ccccc2Cl)c1C(=O)N[C@@H]1C(=O)N2[C@@H]1SC(C)(C)[C@@H]2C(=O)O	256

Record request: MIC value, item C[C@@H](O)[C@H]1C(=O)N2C(C(=O)O)=C(SCCNC=N)C[C@H]12 [IMIPENEM ANHYDROUS] 0.12

What do you get for "C[C@@H](O)[C@H]1C(=O)N2C(C(=O)O)=C(S[C@@H]3CN[C@H](C(=O)N(C)C)C3)[C@H](C)[C@H]12" ? 0.12

What do you get for "CO/N=C(\C(=O)N[C@@H]1C(=O)N2C(C(=O)O)=C(COC(C)=O)CS[C@H]12)c1csc(N)n1" ? 4

What do you get for "CC1(C)S[C@@H]2[C@H](NC(=O)[C@H](N)c3ccc(O)cc3)C(=O)N2[C@H]1C(=O)O" ? 64

* * *

Tested on: Campylobacter coli
Assay: Antibacterial activity against Campylobacter coli by NCCLS agar doubling dilution method
Assay type: functional
This listing pairs compounds with measured MIC50.
Give just the numeric value; µg/mL need not be written.

// solved cases for MIC50 follow
CO/N=C(\C(=O)N[C@@H]1C(=O)N2C(C(=O)O)=C(COC(N)=O)CS[C@H]12)c1ccco1	128
C[C@H]1[C@H](NC(=O)/C(=N\OC(C)(C)C(=O)O)c2csc(N)n2)C(=O)N1S(=O)(=O)O	64
CC(=O)OCC1=C(C(=O)O)N2C(=O)[C@@H](NC(=O)Cc3cccs3)[C@H]2SC1	256
O=C(O)[C@H]1/C(=C/CO)O[C@@H]2CC(=O)N21	16
CO[C@@]1(NC(=O)Cc2cccs2)C(=O)N2C(C(=O)O)=C(COC(N)=O)CS[C@@H]21	128
C[C@@H](O)[C@H]1C(=O)N2C(C(=O)O)=C(S[C@@H]3CN[C@H](C(=O)N(C)C)C3)[C@H](C)[C@H]12	0.12
C[C@@H](O)[C@H]1C(=O)N2C(C(=O)O)=C(SCCNC=N)C[C@H]12 [IMIPENEM ANHYDROUS]	0.06
CC1(C)S[C@@H]2[C@H](NC(=O)[C@H](C(=O)O)c3ccsc3)C(=O)N2[C@H]1C(=O)O	64

We next turn to a different compound, shown below.
Record request: MIC50 value, item "CCN1CCN(C(=O)N[C@@H](C(=O)N[C@@H]2C(=O)N3[C@@H]2SC(C)(C)[C@@H]3C(=O)O)c2ccccc2)C(=O)C1=O" 512

* * *

This listing pairs compounds with measured MIC50.
System: Campylobacter coli
Experiment: Antibacterial activity against Campylobacter coli by NCCLS agar doubling dilution method
Assay type: functional
Give just the numeric value; µg/mL need not be written.

CC1(C)S[C@@H]2[C@H](NC(=O)Cc3ccccc3)C(=O)N2[C@H]1C(=O)O [PENICILLIN G]	128

Record request: MIC50 value, item Cc1onc(-c2ccccc2Cl)c1C(=O)N[C@@H]1C(=O)N2[C@@H]1SC(C)(C)[C@@H]2C(=O)O [CLOXACILLIN] 256

What do you get for C[C@]1(Cn2ccnn2)[C@H](C(=O)O)N2C(=O)C[C@H]2S1(=O)=O [TAZOBACTAM] ? 16

What do you get for CO/N=C(\C(=O)N[C@@H]1C(=O)N2C(C(=O)O)=C(COC(C)=O)CS[C@H]12)c1csc(N)n1 [CEFOTAXIME] ? 4

* * *

Tested on: Campylobacter coli
Test: Antibacterial activity against bla-positive and beta-lactamase-weakly positive Campylobacter coli isolate P1627 by NCCLS agar doubling dilution method
Assay type: functional
This listing pairs compounds with measured log10 MIC.
Note: values are log10 of MIC expressed in µg/mL.

CC1(C)S[C@@H]2[C@H](NC(=O)C(C(=O)O)c3ccccc3)C(=O)N2[C@H]1C(=O)O (stereo partly drawn) [CARBENICILLIN]	1.51
CO[C@@]1(NC(=O)Cc2cccs2)C(=O)N2C(C(=O)O)=C(COC(N)=O)CS[C@@H]21 [CEFOXITIN]	1.81
CO/N=C(\C(=O)N[C@@H]1C(=O)N2C(C(=O)O)=C(COC(C)=O)CS[C@H]12)c1csc(N)n1 [CEFOTAXIME]	0.60
CC1(C)S[C@@H]2[C@H](NC(=O)Cc3ccccc3)C(=O)N2[C@H]1C(=O)O [PENICILLIN G]	0.90
CCN1CCN(C(=O)N[C@@H](C(=O)N[C@@H]2C(=O)N3[C@@H]2SC(C)(C)[C@@H]3C(=O)O)c2ccccc2)C(=O)C1=O [PIPERACILLIN]	2.71
CC1(C)S[C@@H]2[C@H](NC(=O)[C@H](N)c3ccc(O)cc3)C(=O)N2[C@H]1C(=O)O [AMOXICILLIN]	0.90
CC1(C)S[C@@H]2[C@H](NC(=O)[C@H](N)c3ccccc3)C(=O)N2[C@H]1C(=O)O [AMPICILLIN]	1.51
CC1(C)S[C@@H]2[C@H](NC(=O)[C@H](C(=O)O)c3ccsc3)C(=O)N2[C@H]1C(=O)O [TICARCILLIN]	1.81
C[C@@H](O)[C@H]1C(=O)N2C(C(=O)O)=C(SCCNC=N)C[C@H]12 [IMIPENEM ANHYDROUS]	-0.92
C[C@@H](O)[C@H]1C(=O)N2C(C(=O)O)=C(S[C@@H]3CN[C@H](C(=O)N(C)C)C3)[C@H](C)[C@H]12 [MEROPENEM]	-1.52

Record request: log10 MIC value, item Cc1onc(-c2ccccc2Cl)c1C(=O)N[C@@H]1C(=O)N2[C@@H]1SC(C)(C)[C@@H]2C(=O)O [CLOXACILLIN] 2.41

What do you get for CO/N=C(\C(=O)N[C@@H]1C(=O)N2C(C(=O)O)=C(COC(N)=O)CS[C@H]12)c1ccco1 [CEFUROXIME] ? 1.81

* * *

Tested on: Campylobacter jejuni
Assay: Antibacterial activity against bla gene-positive and nitrocefin reaction-positive beta-lactamase harboring Campylobacter jejuni isolate P286 by NCCLS agar doubling dilution method
Assay type: functional
OBSERVATION TYPE: MIC (µg/mL)
Give just the numeric value; µg/mL need not be written.

// solved cases for MIC follow
CC1(C)S[C@@H]2[C@H](NC(=O)Cc3ccccc3)C(=O)N2[C@H]1C(=O)O [PENICILLIN G]	128
CC1(C)S[C@@H]2[C@H](NC(=O)C(C(=O)O)c3ccccc3)C(=O)N2[C@H]1C(=O)O (some centres undefined) [CARBENICILLIN]	256

Record request: MIC value, item CO/N=C(\C(=O)N[C@@H]1C(=O)N2C(C(=O)O)=C(COC(C)=O)CS[C@H]12)c1csc(N)n1 [CEFOTAXIME] 8

What do you get for Cc1onc(-c2ccccc2Cl)c1C(=O)N[C@@H]1C(=O)N2[C@@H]1SC(C)(C)[C@@H]2C(=O)O [CLOXACILLIN] ? 256

* * *

Tested on: Campylobacter jejuni
Assay: Antibacterial activity against bla gene-negative and nitrocefin reaction-positive beta-lactamase harboring Campylobacter jejuni isolate P843 by NCCLS agar doubling dilution method
Assay type: functional
Labelling: MIC reported below 60 µg/mL becomes yes; at or above becomes no.

Solved entries:
CC1(C)S[C@@H]2[C@H](NC(=O)[C@H](N)c3ccccc3)C(=O)N2[C@H]1C(=O)O [AMPICILLIN]	yes
CC1(C)S[C@@H]2[C@H](NC(=O)Cc3ccccc3)C(=O)N2[C@H]1C(=O)O [PENICILLIN G]	no
Cc1onc(-c2ccccc2Cl)c1C(=O)N[C@@H]1C(=O)N2[C@@H]1SC(C)(C)[C@@H]2C(=O)O [CLOXACILLIN]	no

Answer whether the compound CO[C@@]1(NC(=O)Cc2cccs2)C(=O)N2C(C(=O)O)=C(COC(N)=O)CS[C@@H]21 [CEFOXITIN] has MIC strictly less than 60 µg/mL no

What do you get for CC1(C)S[C@@H]2[C@H](NC(=O)[C@H](N)c3ccc(O)cc3)C(=O)N2[C@H]1C(=O)O [AMOXICILLIN] ? no

What do you get for CC1(C)S[C@@H]2[C@H](NC(=O)C(C(=O)O)c3ccccc3)C(=O)N2[C@H]1C(=O)O (stereo partly drawn) [CARBENICILLIN] ? yes

What do you get for CCN1CCN(C(=O)N[C@@H](C(=O)N[C@@H]2C(=O)N3[C@@H]2SC(C)(C)[C@@H]3C(=O)O)c2ccccc2)C(=O)C1=O [PIPERACILLIN] ? no

What do you get for C[C@H]1[C@H](NC(=O)/C(=N\OC(C)(C)C(=O)O)c2csc(N)n2)C(=O)N1S(=O)(=O)O [AZTREONAM] ? no

What do you get for C[C@@H](O)[C@H]1C(=O)N2C(C(=O)O)=C(S[C@@H]3CN[C@H](C(=O)N(C)C)C3)[C@H](C)[C@H]12 [MEROPENEM] ? yes

What do you get for CO/N=C(\C(=O)N[C@@H]1C(=O)N2C(C(=O)O)=C(COC(N)=O)CS[C@H]12)c1ccco1 [CEFUROXIME] ? no

What do you get for CC1(C)S[C@@H]2[C@H](NC(=O)[C@H](C(=O)O)c3ccsc3)C(=O)N2[C@H]1C(=O)O [TICARCILLIN] ? no

What do you get for CO/N=C(\C(=O)N[C@@H]1C(=O)N2C(C(=O)O)=C(COC(C)=O)CS[C@H]12)c1csc(N)n1 [CEFOTAXIME] ? yes

What do you get for C[C@@H](O)[C@H]1C(=O)N2C(C(=O)O)=C(SCCNC=N)C[C@H]12 [IMIPENEM ANHYDROUS] ? yes
